subject-of-test: T1, monkey CTLA-4, full length, on transfected HEK293 cells (monkey)
T1 construct: whole, on cells; also called cCTLA-4; HEK293-cCTLA-4
protocol-details: FACS, monkey CTLA-4 expressing cells
MFI at 0.0128 nM reference
measured-metric: MFI at 0.0128 nM

| binder | measured-metric | measured |
| --- | --- | --- |
| 31C12F3 fully human CTLA-4 antibody (human IgG1, kappa) (antibody, V domains shown, also called mAb010) VH: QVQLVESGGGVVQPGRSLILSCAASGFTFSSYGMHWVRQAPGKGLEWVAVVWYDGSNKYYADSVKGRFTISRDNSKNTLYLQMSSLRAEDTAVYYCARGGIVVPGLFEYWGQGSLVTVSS VL: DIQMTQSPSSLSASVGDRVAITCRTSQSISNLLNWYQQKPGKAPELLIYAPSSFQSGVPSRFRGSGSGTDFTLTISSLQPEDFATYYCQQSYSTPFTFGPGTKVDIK | MFI at 0.0128 nM | 34 |
| 97A8D1 fully human CTLA-4 antibody (human IgG1, kappa) (antibody, V domains shown, also called mAb49; mAb049) VH: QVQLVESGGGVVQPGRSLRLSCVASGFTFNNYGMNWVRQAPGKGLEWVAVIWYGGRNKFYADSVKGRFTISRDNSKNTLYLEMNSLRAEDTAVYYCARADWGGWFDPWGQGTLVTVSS VL: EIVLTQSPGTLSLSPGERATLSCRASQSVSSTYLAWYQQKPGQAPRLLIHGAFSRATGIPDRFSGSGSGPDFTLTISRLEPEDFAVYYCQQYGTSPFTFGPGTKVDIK | MFI at 0.0128 nM | 23 |
| 92C8B6 fully human CTLA-4 antibody (human IgG1, kappa) (antibody, V domains shown, also called mAb42; mAb042) VH: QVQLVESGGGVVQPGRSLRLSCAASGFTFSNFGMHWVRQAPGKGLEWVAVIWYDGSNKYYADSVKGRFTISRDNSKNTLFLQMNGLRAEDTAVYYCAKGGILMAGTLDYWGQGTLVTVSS VL: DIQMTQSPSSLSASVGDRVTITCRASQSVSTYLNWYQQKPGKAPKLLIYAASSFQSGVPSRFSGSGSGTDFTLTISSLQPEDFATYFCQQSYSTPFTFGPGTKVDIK | MFI at 0.0128 nM | 22 |
| 40C4C6 fully human CTLA-4 antibody (human IgG1, kappa) (antibody, V domains shown, also called mAb09; mAb009) VH: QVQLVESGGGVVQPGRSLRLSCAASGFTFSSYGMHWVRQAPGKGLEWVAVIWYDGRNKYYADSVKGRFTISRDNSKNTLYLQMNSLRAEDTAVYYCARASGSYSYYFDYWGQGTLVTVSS VL: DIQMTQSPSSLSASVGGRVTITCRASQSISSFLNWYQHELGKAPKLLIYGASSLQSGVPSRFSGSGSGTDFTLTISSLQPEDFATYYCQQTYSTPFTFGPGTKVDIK | MFI at 0.0128 nM | 23 |
